Target: Hexokinase-4 (Homo sapiens) (UniProt P35557)
Sequence (P35557 whole entry): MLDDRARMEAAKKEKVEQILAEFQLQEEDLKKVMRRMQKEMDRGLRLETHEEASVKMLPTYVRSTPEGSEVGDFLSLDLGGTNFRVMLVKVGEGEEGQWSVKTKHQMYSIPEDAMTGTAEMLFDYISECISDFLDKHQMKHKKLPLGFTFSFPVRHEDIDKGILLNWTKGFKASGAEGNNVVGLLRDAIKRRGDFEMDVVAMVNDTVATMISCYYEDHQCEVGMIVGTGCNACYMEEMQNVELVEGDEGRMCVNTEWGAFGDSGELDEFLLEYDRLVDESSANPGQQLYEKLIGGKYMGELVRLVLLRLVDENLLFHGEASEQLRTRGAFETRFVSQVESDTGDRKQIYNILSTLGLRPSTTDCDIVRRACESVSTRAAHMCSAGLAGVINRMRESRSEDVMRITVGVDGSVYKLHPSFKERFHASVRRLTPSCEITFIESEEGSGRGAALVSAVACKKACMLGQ
Assay: Activity of recombinant human pancreatic glucokinase assessed as glucose half-maximal saturation concentration
Entries and their S50
Use mM as the unit, but write only the number.

See these solved cases before continuing.
# COMPOUND, S50 [mM]
rows = [
    ("Cc1cccnc1-c1cc(Oc2ccc(S(C)(=O)=O)cc2)cc(C(=O)Nc2ccn(CCN3CCOCC3)n2)c1", 3.54),
    ("COCCOCn1ccc(NC(=O)c2cc(Oc3ccc(S(C)(=O)=O)cc3)cc(-c3ncccc3C)c2)n1", 2.33),
    ("COCC(C)NCc1csc(NC(=O)c2cc(Oc3ccc(S(C)(=O)=O)cc3)cc(-c3ncccc3C)c2)n1 (stereo not drawn)", 2.27),
]

Ask: I have this compound here, `CCN(CC)Cc1csc(NC(=O)c2cc(Oc3ccc(S(C)(=O)=O)cc3)cc(-c3ncccc3C)c2)n1` , and I need its recorded S50.
Reply: 5.79

Ask: I have this compound here, `Cc1cccnc1-c1cc(Oc2ccc(S(C)(=O)=O)cc2)cc(C(=O)Nc2nccs2)c1` , and I need its recorded S50.
Reply: 2.01

Ask: I have this compound here, `COCCN(CCOC)Cc1csc(NC(=O)c2cc(Oc3ccc(S(C)(=O)=O)cc3)cc(-c3ncccc3C)c2)n1` , and I need its recorded S50.
Reply: 5.43

Ask: I have this compound here, `COC(CNCc1csc(NC(=O)c2cc(Oc3ccc(S(C)(=O)=O)cc3)cc(-c3ncccc3C)c2)n1)OC` , and I need its recorded S50.
Reply: 0.57

Ask: I have this compound here, `Cc1cccnc1-c1cc(Oc2ccc(S(C)(=O)=O)cc2)cc(C(=O)Nc2ccn(C)n2)c1` , and I need its recorded S50.
Reply: 3.89
